Assignment: determine reported t½ for the given binders.
Biological target: human CD3 (huCD3ed) (human) (UniProt P07766)
Sequence (P07766 23-126, chain 1 of 2): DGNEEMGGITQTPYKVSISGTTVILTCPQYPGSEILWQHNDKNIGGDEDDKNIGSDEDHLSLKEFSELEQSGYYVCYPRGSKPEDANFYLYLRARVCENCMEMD
Sequence (P04234 22-105, chain 2 of 2, further chain): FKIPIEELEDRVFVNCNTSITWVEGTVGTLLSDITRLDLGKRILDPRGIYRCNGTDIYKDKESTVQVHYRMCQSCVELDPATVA
Assay: Biacore SPR, bispecific hIgG2dA format, 37 C; CD3 antigen not given
Dear colleague, please return just the value in s, with no unit written.

Entry h2B4-TK_Ep (bispecific antibody, part only; not given: anti-EpCam arm, constant regions, V domains shown, not shown: another chain or arm of the molecule; a dimerising Fc or GST; small tags and cut ends) VH: EVQLVESGGGLVQPGGSLRLSCAASGFTFSDYYMTWVRQAPGKGLEWVAFIRNRARGYTSDHNASVKGRFTISRDNAKNSLYLQMNSLRAEDTAVYYCARDRPSYYVLDYWGQGTTVTVSS VL: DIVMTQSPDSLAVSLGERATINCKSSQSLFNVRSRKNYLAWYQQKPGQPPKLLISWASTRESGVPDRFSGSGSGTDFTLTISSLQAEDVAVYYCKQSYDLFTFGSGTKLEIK — recorded t½ = 32.4

The binder identified as h25A8-B5_Ep (bispecific antibody, part only; not given: anti-EpCam arm, constant regions, V domains shown, not shown: another chain or arm of the molecule; a dimerising Fc or GST; small tags and cut ends) VH: EVQLVESGGGLVKPGGSLRLSCAASGFTFSTYAMNWVRQAPGKGLEWVGRIRSKINNYATYYAESVKGRFTISRDDSKNTLYLQMNSLKTEDTAVYYCVRHETLRSGISWFASWGQGTLVTVSS VL: QAVVTQEPSLTVSPGGTVTLTCRSSTGAVTTSNYANWVQQKPGQAPRGLIGGTNTRAPGTPARFSGSLLGGKAALTLSGAQPEDEAEYYCVLWYNNYWVFGGGTKLTVL registered its t½ at 12

get_value(item= h2B4-1d_Ep (bispecific antibody, part only; not given: anti-EpCam arm, constant regions, V domains shown, not shown: another chain or arm of the molecule; a dimerising Fc or GST; small tags and cut ends) VH: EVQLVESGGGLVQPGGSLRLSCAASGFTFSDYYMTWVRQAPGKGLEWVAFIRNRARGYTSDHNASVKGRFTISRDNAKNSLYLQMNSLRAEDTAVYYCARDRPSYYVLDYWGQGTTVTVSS VL: DIVMTQSPDSLAVSLGERATINCTSSQSLFNVRSRKNYLAWYQQKPGQPPKLLISWASTRESGVPDRFSGSGSGTDFTLTISSLQAEDVAVYYCKQSYDLFTFGSGTKLEIK , readout=t½) returns 29.4
